Provide the reported DPX2 Viability @ 25 μM of each item.
Tested on: DPX2 cells
TEST_CONDITIONS: human
A complete answer gives the number and then names the unit.

Data request: # input compound: CO[C@H]1/C=C/O[C@@]2(C)Oc3c(C)c(O)c4c(=O)c(c5oc6cc(N7CCN(CC(=O)O)CC7)cc(C)c6nc-5c4c3C2=O)NC(=O)/C(C)=C\C=C\[C@H](C)[C@H](O)[C@@H](C)[C@@H](O)[C@@H](C)[C@H](OC(C)=O)[C@@H]1C [Compound 29h] ; wanted: its DPX2 Viability @ 25 μM
Data returned: 98%

Data request: And what about the compound CO[C@H]1/C=C/O[C@@]2(C)Oc3c(C)c(O)c4c(=O)c(c5oc6cc(N7CCN(CC(=O)O)CC7)cc(OCc7ccc(CN8CCOCC8)cc7)c6nc-5c4c3C2=O)NC(=O)/C(C)=C\C=C\[C@H](C)[C@H](O)[C@@H](C)[C@@H](O)[C@@H](C)[C@H](OC(C)=O)[C@@H]1C [Compound 17i] ?
Data returned: 100%

Data request: Also CO[C@H]1/C=C/O[C@@]2(C)Oc3c(C)c(O)c4c(=O)c(c5oc6cc(N7CCS(=O)(=O)CC7)cc(OCc7ccc(CN8CCOCC8)cc7)c6nc-5c4c3C2=O)NC(=O)/C(C)=C\C=C\[C@H](C)[C@H](O)[C@@H](C)[C@@H](O)[C@@H](C)[C@H](OC(C)=O)[C@@H]1C [Compound 17j] ?
Data returned: 126%

Data request: And for CO[C@H]1/C=C/O[C@@]2(C)Oc3c(C)c(O)c4c(=O)c(c5oc6cc(C)cc(N7CCN(CC(C)C)CC7)c6nc-5c4c3C2=O)NC(=O)/C(C)=C\C=C\[C@H](C)[C@H](O)[C@@H](C)[C@@H](O)[C@@H](C)[C@H](OC(C)=O)[C@@H]1C [Compound 30c] ?
Data returned: 49%

----------
MEASURED_TARGET: E. coli WT RNAP (Escherichia coli, UniProt P0A8V2)
Construct: made in house
PROTOCOL_TEXT: biochemical
PARAMETER_MEASURED: pIC50
Please treat pIC50 as minus the base-10 logarithm of the molar concentration.

Data request: May I ask what pIC50 has been recorded for CO[C@H]1/C=C/O[C@@]2(C)Oc3c(C)c(O)c4c(=O)c(c5oc6cccc(OCCCCN7CCN(C(=O)CN8CCOCC8)CC7)c6nc-5c4c3C2=O)NC(=O)/C(C)=C\C=C\[C@H](C)[C@H](O)[C@@H](C)[C@@H](O)[C@@H](C)[C@H](OC(C)=O)[C@@H]1C ?
Data returned: 8.15

----------
System: DPX2 cells
TEST_CONDITIONS: human
Hi there, I'd appreciate the recorded DPX2 Viability @ 25 μM for every entry that follows.
Give just the numeric value; % need not be written.

Data request: Which DPX2 Viability @ 25 μM is listed for CO[C@H]1/C=C/O[C@@]2(C)Oc3c(C)c(O)c4c(=O)c(c5oc6cc(N7CCN(C(=O)OC(C)(C)C)CC7)cc(C)c6nc-5c4c3C2=O)NC(=O)/C(C)=C\C=C\[C@H](C)[C@H](O)[C@@H](C)[C@@H](O)[C@@H](C)[C@H](OC(C)=O)[C@@H]1C [Compound 26i] ?
Data returned: 102

Data request: Same again, this time with CO[C@H]1/C=C/O[C@@]2(C)Oc3c(C)c(O)c4c(=O)c(c5oc6cc(N7CCC(C(=O)O)CC7)cc(OCc7ccc(CN8CCOCC8)cc7)c6nc-5c4c3C2=O)NC(=O)/C(C)=C\C=C\[C@H](C)[C@H](O)[C@@H](C)[C@@H](O)[C@@H](C)[C@H](OC(C)=O)[C@@H]1C [Compound 17k]
Data returned: 34

Data request: Next molecule: CO[C@H]1/C=C/O[C@@]2(C)Oc3c(C)c(O)c4c(=O)c(c5oc6cc(N7CCN(C(=O)c8ccc9occc9c8)CC7)cc(C)c6nc-5c4c3C2=O)NC(=O)/C(C)=C\C=C\[C@H](C)[C@H](O)[C@@H](C)[C@@H](O)[C@@H](C)[C@H](OC(C)=O)[C@@H]1C [Compound 29c]
Data returned: 114

Data request: Also check CO[C@H]1/C=C/O[C@@]2(C)Oc3c(C)c(O)c4c(=O)c(c5oc6cccc(OCCCCN7CCOCC7)c6nc-5c4c3C2=O)NC(=O)/C(C)=C\C=C\[C@H](C)[C@H](O)[C@@H](C)[C@@H](O)[C@@H](C)[C@H](OC(C)=O)[C@@H]1C
Data returned: 45

----------
Tested on: DPX2 cells
TEST_CONDITIONS: human
PARAMETER_MEASURED: DPX2 Viability @ 25 μM (%)
All answers are understood in %, so give the number only.

Data request: What measured DPX2 Viability @ 25 μM is associated with CO[C@H]1/C=C/O[C@@]2(C)Oc3c(C)c(O)c4c(=O)c(c5oc6cc(N7CCN(CC(C)C)CC7)cc(OCCCCN7CCN(C(=O)Cn8ccnc8)CC7)c6nc-5c4c3C2=O)NC(=O)/C(C)=C\C=C\[C@H](C)[C@H](O)[C@@H](C)[C@@H](O)[C@@H](C)[C@H](OC(C)=O)[C@@H]1C on DPX2 cells?
Data returned: 90

Data request: What would you report for CCC(=O)N1CCN(c2cc(OCc3ccc(CN4CCOCC4)cc3)c3nc4c5c6c7c(C)c(O)c5c(=O)c(c-4oc3c2)NC(=O)/C(C)=C\C=C\[C@H](C)[C@H](O)[C@@H](C)[C@@H](O)[C@@H](C)[C@H](OC(C)=O)[C@H](C)[C@@H](OC)/C=C/O[C@@](C)(O7)C6=O)CC1 [Compound 17g] ?
Data returned: 56

Data request: One more molecule: CO[C@H]1/C=C/O[C@@]2(C)Oc3c(C)c(O)c4c(=O)c(c5oc6cccc(OCc7ccc(CN8CCN(C(=O)Cn9ccnc9)CC8)cc7)c6nc-5c4c3C2=O)NC(=O)/C(C)=C\C=C\[C@H](C)[C@H](O)[C@@H](C)[C@@H](O)[C@@H](C)[C@H](OC(C)=O)[C@@H]1C [Compound 16b]
Data returned: 76

Data request: Subsequent entry: CO[C@H]1/C=C/O[C@@]2(C)Oc3c(C)c(O)c4c(=O)c(c5oc6cc(N7CCN(CC(C)C)CC7)cc(O)c6nc-5c4c3C2=O)NC(=O)/C(C)=C\C=C\[C@H](C)[C@H](O)[C@@H](C)[C@@H](O)[C@@H](C)[C@H](OC(C)=O)[C@@H]1C [RLZ, rifalazil, reference compound]
Data returned: 96

----------
Please go through the items and note down their IC50.
MEASURED_TARGET: E. coli S531L (RIF^R) RNAP (Escherichia coli, UniProt P0A8V2, S531L)
PROTOCOL_TEXT: biochemical

Data request: Form field: reported IC50 of CO[C@H]1/C=C/O[C@@]2(C)Oc3c(C)c(O)c4c(=O)c(c5oc6cc(N7CCN(CC(C)C)CC7)cc(OCCCCN7CCOCC7)c6nc-5c4c3C2=O)NC(=O)/C(C)=C\C=C\[C@H](C)[C@H](O)[C@@H](C)[C@@H](O)[C@@H](C)[C@H](OC(C)=O)[C@@H]1C
Data returned: 80 µM

Data request: Lookup CO[C@H]1/C=C/O[C@@]2(C)Oc3c(C)c(O)c4c(=O)c(c5oc6cc(N7CCN(C)CC7)cc(OCCCCN7CCN(C(=O)Cn8ccnc8)CC7)c6nc-5c4c3C2=O)NC(=O)/C(C)=C\C=C\[C@H](C)[C@H](O)[C@@H](C)[C@@H](O)[C@@H](C)[C@H](OC(C)=O)[C@@H]1C
Data returned: 230 µM

Data request: Entry CO[C@H]1/C=C/O[C@@]2(C)Oc3c(C)c(O)c4c(=O)c(c5oc6cccc(OCc7cccc(CN8CCN(C(=O)CN9CCOCC9)CC8)c7)c6nc-5c4c3C2=O)NC(=O)/C(C)=C\C=C\[C@H](C)[C@H](O)[C@@H](C)[C@@H](O)[C@@H](C)[C@H](OC(C)=O)[C@@H]1C [Compound 11f] please
Data returned: > 500 µM

Data request: Okay, and CO[C@H]1/C=C/O[C@@]2(C)Oc3c(C)c(O)c4c(=O)c(c5oc6cccc(OCCCCN7CCN(C(=O)OC(C)(C)C)CC7)c6nc-5c4c3C2=O)NC(=O)/C(C)=C\C=C\[C@H](C)[C@H](O)[C@@H](C)[C@@H](O)[C@@H](C)[C@H](OC(C)=O)[C@@H]1C ?
Data returned: 300 µM

Data request: And CO[C@H]1/C=C/O[C@@]2(C)Oc3c(C)c(O)c4c(=O)c(c5oc6cc(N7CCN(CC(C)C)CC7)cc(OCCCCN7CCN(CCn8ccnc8)CC7)c6nc-5c4c3C2=O)NC(=O)/C(C)=C\C=C\[C@H](C)[C@H](O)[C@@H](C)[C@@H](O)[C@@H](C)[C@H](OC(C)=O)[C@@H]1C ?
Data returned: 52 µM

Data request: Field entry: CO[C@H]1/C=C/O[C@@]2(C)Oc3c(C)c(O)c4c(=O)c(c5oc6cccc(OCc7cccc(CN8CCN(C(C)=O)CC8)c7)c6nc-5c4c3C2=O)NC(=O)/C(C)=C\C=C\[C@H](C)[C@H](O)[C@@H](C)[C@@H](O)[C@@H](C)[C@H](OC(C)=O)[C@@H]1C [Compound 11c]
Data returned: 330 µM

Data request: Consider next the compound CCC(=O)N1CCN(Cc2cccc(COc3cccc4oc5c6c(=O)c7c(O)c(C)c8c(c7c-5nc34)C(=O)[C@@](C)(O/C=C/[C@H](OC)[C@@H](C)[C@@H](OC(C)=O)[C@H](C)[C@H](O)[C@H](C)[C@@H](O)[C@@H](C)/C=C/C=C(/C)C(=O)N6)O8)c2)CC1 [Compound 11d] in the same way.
Data returned: 94 µM

Data request: Now the same for CO[C@H]1/C=C/O[C@@]2(C)Oc3c(C)c(O)c4c(=O)c(c5oc6cccc(OCCCCN7CCN(C)CC7)c6nc-5c4c3C2=O)NC(=O)/C(C)=C\C=C\[C@H](C)[C@H](O)[C@@H](C)[C@@H](O)[C@@H](C)[C@H](OC(C)=O)[C@@H]1C
Data returned: 790 µM

Data origin, for the record: patent US20250188092A1
